experiment: compound effects on hepatocellular carcinoma cell viability – HepG2, calcein-AM fluorescence, 48 h, basal, profiling panel (AID 1164); conditions: higher = more signal; further: test concentration not given here
The following compounds are shown together with reported z-score values.
Hey, just send me the number, nothing else.

Known z-score results, listed for orientation:
C=CCN1Cc2ccccc2C[C@]2(N=C(c3ccc(OCCCO)cc3)O[C@@H]2c2ccccc2)C1=O: -0.676
CC(C)(C)OC(=O)CC[C@]1(C(=O)NCC(O)CO)N=C(c2ccc(OCCCO)cc2)O[C@H]1c1ccccc1CN=[N+]=[N-] (stereo partly drawn): -0.504
C[C@]1(C(=O)NCC(F)(F)F)c2ccccc2C(=O)N(Cc2cc(F)cc(C(F)(F)F)c2)[C@H]1c1ccc(CO)cc1: -0.357
C=C(CCCC)C(=O)CC[C@H](OC(C)=O)c1ccc(CO)o1: -0.576
CC(C)(C)OC(=O)CC[C@@]1(C(N)=O)N=C(c2ccc(OCCCO)cc2)O[C@@H]1c1ccccc1N=[N+]=[N-]: 2.25
COc1ccc([Si](C)(C)[C@@H]2[C@@H](CCO)O[C@]3(C(=O)N(Cc4cccc(N5CCCCC5=O)c4)c4ccccc43)[C@H]2C)cc1: -1.7

Looking for the measured z-score of CC(C)OC(=O)C1=CCC(c2cccc(Cl)c2)O1 (stereo not drawn) , can you help?
-0.582

Looking for the measured z-score of CC(C)N1C(=O)c2ccccc2[C@](C)(C(=O)NC2CC2)[C@@H]1c1ccc(CO)cc1 , can you help?
0.176

Where these numbers come from: PubChem BioAssay
